biological target: CTLA-4-His protein (UniProt P16410); assay: SPR, antibody captured by Fc, CTLA-4-His as analyte
Sequence (P16410 37-161 limits assumed): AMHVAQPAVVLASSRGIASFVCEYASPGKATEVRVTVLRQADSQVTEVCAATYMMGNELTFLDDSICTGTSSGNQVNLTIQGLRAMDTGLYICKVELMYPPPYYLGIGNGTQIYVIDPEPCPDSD
pKd: −log10 of the molar value.
PARAMETER: pKd

[
  {
    "SUBSTANCE": "ipilimumab (YERVOY®) (antibody)",
    "SYSTEM": "CTLA-4-His protein (UniProt P16410)",
    "MEASURED VALUE": 7.76
  }
]

---

biological target: biotin-labeled hCTLA-4/Fc protein (UniProt P16410); experiment: FACS competition, biotin hCTLA-4-Fc on CHO cells expressing human B7-1
Sequence (P16410 37-161): as the sequence (P16410 37-161 limits assumed) above
pIC50: −log10 of the molar value.

[
  {
    "SUBSTANCE": "ipilimumab (YERVOY®) (antibody)",
    "SYSTEM": "biotin-labeled hCTLA-4/Fc protein (UniProt P16410)",
    "pIC50": 8.07
  }
]
